PROTOCOL_DETAILS: HepG2 cytotoxicity, primary screen, cytotoxicity control for P. falciparum antimalarial project, cell-based, ATP luminescence (AID 2303);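 note: 0% = DMSO wells and 100% = digitonin-killed cells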
TEST_SETTINGS: HepG2 viability, 24-48 h, at 10 µM, hits give high values
The source made the active and inactive calls.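 Rule for the calls: active = inhibition above 50%; inactive = the rest.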
Kindly supply the reported inhibition values for the records listed here.

Reference set (2 entries):
> print(dat)
                           smiles.structure  recorded.metric    assay.result
1  CCC(=O)N[C@@H]1CN[C@@H](C#Cc2cc3c(Nc4ccc(OCc5cccc(F)c5)c(Cl)c4)ncnc3s2)C1       inhibition  46% (inactive)
2  c1ccc2cc3c(Nc4ccc(N5CCCCC5)cc4)ccnc3cc2c1       inhibition  21% (inactive)

Below are 3 molecules. Give each one its inhibition.
1. CC(C)CCN1CCCN(Cc2ccc(C(=O)Nc3ccc(Cl)cc3)cc2)CC1
2. CC(=O)Nc1cccc(C(=O)Nc2cccc(-c3ccc(-c4nc5c(C)cccc5[nH]4)s3)c2)c1
3. Nc1nc(N)c2c(CCc3ccc4ccccc4c3)cccc2n1

A:
46% (inactive)
75% (active)
56% (active)

For each of the molecules below, note its inhibition.
1. COc1c(C2CCN(CCCCNC(=O)c3cccc(-c4ccc(C(F)(F)F)cc4)c3)CC2)ccc2c1CCCC2
2. c1cc(CN2CCN(CCN3CCOCC3)CC2)cc(-c2csc(-c3nc4ccccc4[nH]3)c2)c1
3. Nc1ncc(-c2ccsc2)c2ccc(-c3cnc[nH]3)cc12
4. CC(C)(C)c1ccc(NC(=O)Nc2ccc(Cn3ncc(N4CCCNCC4)c(Cl)c3=O)cc2)cc1

A:
1: 50% (active); 2: 27% (inactive); 3: 31% (inactive); 4: -4% (inactive)

---

Consider the following compounds; for each one, report its inhibition.
MEASUREMENT_TARGET: L-lactate dehydrogenase (Plasmodium falciparum (isolate CDC / Honduras)) (UniProt Q27743)
Sequence (Q27743 whole entry, looked up): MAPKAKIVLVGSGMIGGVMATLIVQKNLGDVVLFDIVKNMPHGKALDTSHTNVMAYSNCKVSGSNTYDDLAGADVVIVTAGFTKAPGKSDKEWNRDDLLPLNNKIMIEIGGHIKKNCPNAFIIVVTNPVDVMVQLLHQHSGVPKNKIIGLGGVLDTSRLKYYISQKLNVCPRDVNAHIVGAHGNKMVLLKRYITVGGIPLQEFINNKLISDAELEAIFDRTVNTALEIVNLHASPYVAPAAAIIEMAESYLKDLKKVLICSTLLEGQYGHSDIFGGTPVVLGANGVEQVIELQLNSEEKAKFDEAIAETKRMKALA
PROTOCOL_DETAILS: PfLDH activity inhibition – cell lysate, 3D7 strain, counter-screen for P. falciparum growth inhibition project (AID 2304);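 note: 0% = vehicle and 100% = reference inhibitor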
TEST_SETTINGS: P. falciparum 3D7 crude extract, LDH APAD/NBT absorbance; at 2 µM; hits give high values
Give bare numbers, in %.

> print(dat)
                                   compound  recorded.metric  assay.result
1  C=CCOC(=O)N1CCC(CNCc2cccc(-c3cccc(-c4nc5ccccc5[nH]4)c3)c2)C1 (stereo not drawn)       inhibition            -3
2       CCCCCc1ccc(N2C(N)=NC(N)=NC2(C)C)cc1       inhibition            -6
3  O=C(/C=C/c1ccc(-c2nc3ccc(Cl)cc3[nH]2)cc1)NCc1cccc(F)c1       inhibition             2
4  Cc1cccc(C(=O)Nc2ccnc(N(C)CCCN(C)Cc3cccc(O)c3)c2)c1       inhibition            -3
5       Cc1cc(NN=Cc2ccc(F)cc2)c2ccc(F)cc2n1       inhibition             0

State recorded inhibition for all listed compounds.
1. Cn1c(NC(=O)C2CCC(CNC(=O)c3ccc(O)c(-c4ccc(Cl)c(Cl)c4)c3)CC2)nc2ccccc21 (stereo not drawn)
2. CCc1ccc(O)c(-c2cc(C(=O)Nc3cccnc3)[nH]n2)c1
3. COc1ccc2c(Nc3ccc(N4CCN(C)CC4)cc3)cc(C)nc2c1
4. O=C(NCC1CCN(Cc2ccc3c(c2)OCCO3)C1)c1cc(-c2cccc(C(F)(F)F)c2)cs1 (stereo not drawn)
5. Cc1ccc2nc(C)cc(Nc3ccccc3O)c2c1
6. CO/N=C(\C)c1ccc2c(c1)CCN(CCC1CCC(NC(=O)/C=C/c3ccc(F)cc3)CC1)CC2 (stereo not drawn)
7. O=C(Nc1cccc(-c2ccc(-c3nc4ccc(C(F)(F)F)cc4[nH]3)cc2)c1)c1ccncc1

A:
[1, -7, -2, 4, -3, 1, -1]

Hey, quick one: what's inhibition for each of these?
1. Cc1cccc2[nH]c(-c3ccc(-c4cccc(C(=O)N5CCCCC5C(C)O)c4)s3)nc12 (stereo not drawn)
2. CC1CN(Cc2ccc(-c3ccc(-c4nc5ccc(F)cc5[nH]4)cc3)cc2)CC(C)O1 (stereo not drawn)
3. Cc1cccc2[nH]c(-c3cccc(-c4ccc(CNCCNC(=O)c5ccnn5C)cc4)c3)nc12
4. Cc1cccc2[nH]c(-c3ccc(-c4cccc(CN5CCC(C(N)=O)CC5)c4)s3)nc12
5. CCN(CCS(C)(=O)=O)Cc1ccc(-c2ccc3ncnc(Nc4ccc(OCc5cccc(F)c5)c(Cl)c4)c3c2)o1

A:
1: -1; 2: -1; 3: -2; 4: 4; 5: -7

---

Answer each item with its documented inhibition.
MEASUREMENT_TARGET: L-lactate dehydrogenase (Plasmodium falciparum (isolate CDC / Honduras)) (UniProt Q27743)
PROTOCOL_DETAILS: PfLDH activity inhibition – cell lysate, 3D7 strain, counter-screen for P. falciparum growth inhibition project (AID 2304);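 note: 0% = vehicle and 100% = reference inhibitor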
TEST_SETTINGS: P. falciparum 3D7 crude extract, LDH APAD/NBT absorbance; at 2 µM; hits give high values
One number for each entry, in %.

Your task in this section: give inhibition for each listed record.
1. Cc1cccc(C(=O)Nc2ccnc(N3CCCN(Cc4cccc(O)c4)CC3)c2)c1
2. Clc1cccc(C=NNc2ccnc3ccccc23)c1
3. CC(C)(C)c1ccc(Cn2c(=N)n(CC(=O)c3ccc(-c4ccccc4)cc3)c3ccccc32)cc1
4. NC(=O)c1ccccc1OCC(=O)Nc1ccc(-c2cccc(-c3nc4ccc(C(F)(F)F)cc4[nH]3)c2)cc1
5. COCCCNC(=O)c1ccc(O)c(-c2cc(Cl)cc(Cl)c2)c1

A:
1. 3
2. 4
3. -5
4. -8
5. -7

Quick one: give me inhibition for each item below, same order please.
1. O=C(Nc1ccc(-c2ccc(-c3nc4ccccc4[nH]3)cc2)cc1)Nc1ccc(Cl)c(Cl)c1
2. Cc1ccc(-c2cc(C(=O)Nc3ccc(S(=O)(=O)N4CCCCC4)cc3)[nH]n2)c(O)c1
3. Cc1c2c(nn1-c1ccccc1)C(c1ccccc1)N(c1ccccc1)C2=O (centres undefined)
4. Cc1c2ccc(N(C)c3ccnc(Nc4ccc5c(c4)nc(NC(C)C)n5C)n3)cc2nn1C

A:
4
-5
1
-4

For every item below, please supply its inhibition.
1. O=C(Nc1cccc(-c2nc3ccccc3s2)c1)c1ccccc1[N+](=O)[O-]
2. Cn1nc2ccc3ccccc3c2nc1=N
3. CCOc1ccc(-n2nc3c(Cl)nnc(-c4ccccc4)c3c2-c2ccccc2)cc1
4. COc1c(C2CCN(CCN3CCC(NC(=O)c4ccc(-c5ccc(C(F)(F)F)cc5)cc4)CC3)CC2)ccc2c1CCCC2
5. COc1ccc(-c2cccc(NC(=O)c3cccs3)c2)cc1CN1CCCN(C)CC1
6. CCNc1cc(C(=O)N[C@@H](Cc2ccccc2)[C@H](O)CNCCc2cccc(C(F)(F)F)c2)cc(N2CCCC2=O)c1
7. CC(Cc1ccc(CN2CCN(Cc3ccccc3)CC2)cc1)NCC(O)c1cccc(C(F)(F)F)c1 (centres undefined)

A:
[0, -4, 9, 0, 9, 1, -7]

// batch mode: one inhibition value per listed entry
1. CN1CCN(c2ccc(-c3cc(-c4ccncc4)c(-c4ccc(Cl)c(O)c4)o3)cc2)CC1
2. Cc1ccccc1CNc1nccc(NCCC(=O)Nc2ccccc2)n1
3. Cn1nc(-c2ccc(NC(=O)Nc3cc(C(F)(F)F)ccc3F)cc2)c2cnc(NCCc3cnc[nH]3)nc21

A:
[-4, -3, -3]

---

Assign growth inhibition to each entry below.
PROTOCOL_DETAILS: inhibition of 3D7 malaria parasite growth – strain 3D7 (AID 2306);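 note: 0% = DMSO wells and 100% = chloroquine plus artemisinin control wells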
TEST_SETTINGS: P. falciparum 3D7 erythrocytic growth, LDH absorbance, 72 h; at 2 µM; hits give high values
One number for each entry, in %.

Please review the following examples before continuing.
> print(dat)
                                   compound    recorded.metric  assay.result
1  CC1(CCc2ccccc2)N=C(Nc2ccc(Cl)cc2)N=C(N)C1c1ccc(Cl)c(Cl)c1 (stereo not given)  growth inhibition           102
2  COc1ccc2nccc([C@@H](O)CN3CCC(NC(=O)c4ccc5cc[nH]c5c4)CC3)c2c1  growth inhibition            91
3  O=[N+]([O-])c1cccc(-c2ccc(C=NNc3cc(N4CCCC4)nc(N4CCCC4)n3)o2)c1  growth inhibition           100
4  O=C(/C=C/c1ccc(Cl)c(Cl)c1)NCCCCCN1CCC(NS(=O)(=O)c2cc(Cl)cc(Cl)c2)CC1  growth inhibition            83

Each compound below has a reported value. Please supply its growth inhibition.
1. CCNc1nc(OCC(F)(F)F)nc(N(c2ccccc2)c2ccccc2)n1
2. O=C(Nc1ccc(CCNCc2ccccc2)cc1)Nc1ccc(OC(F)(F)F)cc1
3. CN(C)c1ccc(CN2CCC(CNC(=O)c3cc(-c4ccccc4Cl)cs3)C2)cc1 (stereo not given)
4. Cc1cc(NN=Cc2ccccc2[N+](=O)[O-])c2ccccc2n1
5. O=C(NCCCCCCNCc1ccc(-c2ccccc2)cc1)Nc1ccc(Cl)c(Cl)c1
6. CN(C)C(=O)CC(=O)NCc1c(Cl)cccc1Cl
7. COc1cc2nccc(Nc3ccc4c(cnn4Cc4cccc(F)c4)c3)c2cc1OC
8. CCCc1ccc(NC(=O)c2cccc(CN3CCCN(Cc4cccc(C#N)c4)CC3)c2)cc1

A:
1: 100; 2: 102; 3: 91; 4: 100; 5: 90; 6: 95; 7: 101; 8: 85

Record growth inhibition per entry; entries follow.
1. O=C(NC1CCC(N2CCN(c3cccc(C(F)(F)F)c3)CC2)CC1)c1cc2ccccc2[nH]1 (stereo not given)
2. CN(C)CCN(Cc1ccccc1)c1ccc([N+](=O)[O-])cc1C(F)(F)F
3. COc1c(C2CCN(CCCCNC(=O)c3ccc(-c4ccc(Cl)cc4)cn3)CC2)ccc2c1CCCC2
4. OC1CCCN(Cc2ccc(-c3ccc(-c4nc5ccccc5[nH]4)cc3)cc2)C1 (stereo not given)

A:
1: 99; 2: 96; 3: 93; 4: 100

Provide growth inhibition values for the following items, in order.
1. O=[N+]([O-])c1ccc(/C=N/Nc2cc(-c3ccccc3)nc3ccccc23)o1
2. COc1cccc(CN2CCCC(COC(c3ccc(F)cc3)c3ccc(F)cc3)C2)c1O (stereo not given)
3. COc1cccc(CCc2c(CCNCCCCCCNCCc3ccccc3)ccc(OC)c2OC)c1
4. CC1(C)CC(NCCCCCCCOc2ccc(OCc3ccccc3)cc2)CC(C)(C)N1

A:
1. 93
2. 98
3. 100
4. 100
